# Test system: UACC-257
# PROTOCOL_NOTES: Growth inhibition of human UACC257 cells at 10 uM after 48 hrs by SRB assay
# Format: functional
# REPORTED_CONDITIONS: UACC-257, 48 h, read-out: GI
METRIC: inhibition of growth at 10 µM

>  <COMPOUND>
O=c1c2cccc3c(N4CCOCC4)ccc(c32)c2nc3ccccc3n12

>  <METRIC>
inhibition of growth at 10 µM

>  <ENDPOINT_VALUE>
< 20%

$$$$
>  <COMPOUND>
O=c1c2cccc3c(N4CCCC4)ccc(c32)c2nc3ccccc3n12

>  <METRIC>
inhibition of growth at 10 µM

>  <ENDPOINT_VALUE>
< 20%

$$$$
>  <COMPOUND>
O=c1c2cccc3c(Nc4ccc(Br)cn4)ccc(c32)c2nc3ccccc3n12

>  <METRIC>
inhibition of growth at 10 µM

>  <ENDPOINT_VALUE>
< 20%

$$$$
>  <COMPOUND>
O=c1c2cccc3c(Nc4ccc(F)cc4)ccc(c32)c2nc3ccccc3n12

>  <METRIC>
inhibition of growth at 10 µM

>  <ENDPOINT_VALUE>
< 20%

$$$$
>  <COMPOUND>
Nc1ccc(Sc2ccc3c4c2cccc4c(=O)n2c4ccccc4nc32)cc1

>  <METRIC>
inhibition of growth at 10 µM

>  <ENDPOINT_VALUE>
29%

$$$$
>  <COMPOUND>
O=c1c2cccc3c(NCCO)ccc(c32)c2nc3ccccc3n12

>  <METRIC>
inhibition of growth at 10 µM

>  <ENDPOINT_VALUE>
< 20%

$$$$
>  <COMPOUND>
O=c1[nH]cc(F)c(=O)[nH]1 [FLUOROURACIL]

>  <METRIC>
inhibition of growth at 10 µM

>  <ENDPOINT_VALUE>
19.5%

$$$$

---

# Test system: BT-549
# PROTOCOL_NOTES: Growth inhibition of human BT549 cells at 10 uM after 48 hrs by SRB assay
# Type: functional
# REPORTED_CONDITIONS: BT-549, 48 h, read-out: GI
inhibition of growth at 10 µM: recorded values

>  <CPD_SMILES>
O=c1c2cccc3c(N4CCOCC4)ccc(c32)c2nc3ccccc3n12

>  <inhibition of growth at 10 µM>
< 20%

$$$$
>  <CPD_SMILES>
O=c1c2cccc3c(Nc4ccc(Br)cn4)ccc(c32)c2nc3ccccc3n12

>  <inhibition of growth at 10 µM>
< 20%

$$$$
>  <CPD_SMILES>
Nc1ccc(Sc2ccc3c4c2cccc4c(=O)n2c4ccccc4nc32)cc1

>  <inhibition of growth at 10 µM>
40.9%

$$$$
>  <CPD_SMILES>
O=c1c2cccc3c(Nc4ccc(F)cc4)ccc(c32)c2nc3ccccc3n12

>  <inhibition of growth at 10 µM>
< 20%

$$$$
>  <CPD_SMILES>
O=c1[nH]cc(F)c(=O)[nH]1

>  <inhibition of growth at 10 µM>
37.8%

$$$$
>  <CPD_SMILES>
O=c1c2cccc3c(NCCO)ccc(c32)c2nc3ccccc3n12

>  <inhibition of growth at 10 µM>
< 20%

$$$$
>  <CPD_SMILES>
CCCCNc1ccc2c3c1cccc3c(=O)n1c3ccccc3nc21

>  <inhibition of growth at 10 µM>
< 20%

$$$$
>  <CPD_SMILES>
O=c1c2cccc3c(NC4CCCCC4)ccc(c32)c2nc3ccccc3n12

>  <inhibition of growth at 10 µM>
< 20%

$$$$
>  <CPD_SMILES>
O=c1c2cccc3c(N4CCCC4)ccc(c32)c2nc3ccccc3n12

>  <inhibition of growth at 10 µM>
28.8%

$$$$
>  <CPD_SMILES>
O=c1c2cccc3c(Nc4c(F)cccc4F)ccc(c32)c2nc3ccccc3n12

>  <inhibition of growth at 10 µM>
< 20%

$$$$
>  <CPD_SMILES>
O=c1c2cccc3c(Nc4ccccn4)ccc(c32)c2nc3ccccc3n12

>  <inhibition of growth at 10 µM>
< 20%

$$$$
